- study_target: T1, FBF-2 RBD+CT Y479A (Caenorhabditis elegans, UniProt Q09312 164-632, Y479A)
- T1 sequence: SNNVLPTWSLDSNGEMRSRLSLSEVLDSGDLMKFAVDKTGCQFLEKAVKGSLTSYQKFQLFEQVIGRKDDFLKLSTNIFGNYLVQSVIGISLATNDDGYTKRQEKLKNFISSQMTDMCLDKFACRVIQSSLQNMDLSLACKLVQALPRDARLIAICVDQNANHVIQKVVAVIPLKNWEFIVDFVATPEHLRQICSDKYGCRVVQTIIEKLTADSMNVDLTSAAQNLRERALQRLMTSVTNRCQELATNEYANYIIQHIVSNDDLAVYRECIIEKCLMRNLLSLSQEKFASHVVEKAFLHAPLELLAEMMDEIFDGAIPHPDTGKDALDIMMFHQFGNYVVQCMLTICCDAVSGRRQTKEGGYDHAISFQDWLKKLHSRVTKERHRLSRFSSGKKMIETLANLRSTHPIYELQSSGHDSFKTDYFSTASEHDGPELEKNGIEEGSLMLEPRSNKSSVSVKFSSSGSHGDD
- protocol_description: SPR; kon 10.2e4 M-1 s-1, koff 1.18e-3 s-1; EMSA: FBF-2 in 20 mM HEPES pH 7.4, 150 mM NaCl, 0.5 mM TCEP mixed 1:1 with 5 nM final RNA in 10 mM HEPES pH 7.4, 0.01% Tween 20, 0.1 mg/ml BSA, 0.1 mg/ml yeast
- assay_conditions: protein: recombinant; tags: none (His6-SUMO removed with Ulp1); label: 3'-biotin
metric: Kd
Report field: quantity (unit follows the number).

Data request: For the binder AUCAUGUGCCAUACA (ssRNA) [gld-1 FBEa RNA (SPR)] , what Kd is on record?
Data returned: 12.9 nM
